# system.tested: Acetylcholinesterase (Homo sapiens) (UniProt P22303)
# Sequence (P22303 whole entry, looked up): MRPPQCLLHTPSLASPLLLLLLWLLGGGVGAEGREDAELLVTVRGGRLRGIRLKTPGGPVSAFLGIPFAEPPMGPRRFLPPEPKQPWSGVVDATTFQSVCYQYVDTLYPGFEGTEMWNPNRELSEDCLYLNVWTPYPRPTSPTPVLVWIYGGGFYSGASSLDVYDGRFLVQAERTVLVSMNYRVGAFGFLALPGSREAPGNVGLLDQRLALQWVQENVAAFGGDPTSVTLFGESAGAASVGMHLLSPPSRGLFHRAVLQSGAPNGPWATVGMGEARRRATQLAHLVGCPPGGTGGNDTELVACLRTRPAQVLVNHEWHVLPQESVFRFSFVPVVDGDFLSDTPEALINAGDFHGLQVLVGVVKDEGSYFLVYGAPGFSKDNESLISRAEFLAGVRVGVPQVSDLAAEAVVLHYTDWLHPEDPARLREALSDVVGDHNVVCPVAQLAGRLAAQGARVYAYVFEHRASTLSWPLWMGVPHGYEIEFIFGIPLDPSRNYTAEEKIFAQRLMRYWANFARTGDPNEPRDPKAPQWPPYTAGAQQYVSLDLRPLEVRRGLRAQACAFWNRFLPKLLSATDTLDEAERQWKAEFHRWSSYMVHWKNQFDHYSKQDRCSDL
# measurement.protocol: Acetylcholinesterase (AChE) small molecule antagonists: enzyme-based qHTS assay (AID 1347397); further: on the % scale 0 is the no-effect control and ±100 the full control effect; nearly all actives have a fitted effect of over 55% in size
# measurement.parameters: series mostly up to 115 µM
Calls of active or inactive are those of the source. The call rests on the fitted dose curve.
endpoint: activity change, negative = inhibition

| compound | system.tested | measured.result |
| --- | --- | --- |
| O=C(O)O | Acetylcholinesterase (Homo sapiens) (UniProt P22303) | 0.136% [at 10.5 µM] (inactive) |
| CCn1cc(C(=O)O)c(=O)c2cc(F)c(N3CCN(C)CC3)cc21 | Acetylcholinesterase (Homo sapiens) (UniProt P22303) | -0.504% [at 23.6 µM] (inactive) |
| C[C@@H]1NC(=O)[C@@H](N)CNC(=O)[C@H](C2CCNC(N)=N2)NC(=O)/C(=C/NC(N)=O)NC(=O)[C@H](CNC(=O)C[C@@H](N)CCCN)NC1=O (stereo partly specified) | Acetylcholinesterase (Homo sapiens) (UniProt P22303) | -0.97% [at 0.435 µM] (inactive) |
| CN(C)c1ccc(/C=C/c2ccc([N+](=O)[O-])cc2)cc1 | Acetylcholinesterase (Homo sapiens) (UniProt P22303) | 1.35% [at 10.5 µM] (inactive) |
| CCC(=O)CC(C)CC (stereo unspecified) | Acetylcholinesterase (Homo sapiens) (UniProt P22303) | 1.36% [at 0.435 µM] (inactive) |

As a next step, examine the compound that follows.
Enquiry: Quickly give me recorded activity change, negative = inhibition for CN(C)C(=O)NC1(c2ccccc2)CCN(CCC[C@]2(c3ccc(Cl)c(Cl)c3)CCCN(C(=O)c3ccccc3)C2)CC1
Return: 0.197% [at 23.6 µM] (inactive)
